Target: Cyclin-dependent kinase 2/cyclin E (Homo sapiens, UniProt P24941)
Assay: Inhibitory concentration against cyclin dependent kinase-2 (CDK2)/Cyclin E
Type: protein-complex assay
pIC50: −log10 of the molar value.
Overview of reported pIC50 across a group of compounds:
ENDPOINT NAME: pIC50

{"columns": ["COMPOUND", "ENDPOINT NAME", "RELATION", "READOUT VALUE"],
 "data": [
  ["CC(C)n1cnc2c(NC3Cc4ccccc4C3)nc(N(CCO)CCO)nc21", "pIC50", "<", 5.30],
  ["COc1ccc(CNc2nc(N(CCO)Cc3ccccc3)nc3c2ncn3C(C)C)cc1", "pIC50", "=", 6.00],
  ["COc1ccc(CNc2nc(N(Cc3cccnc3)CC(C)C#N)nc3c2ncn3C(C)C)cc1 (stereo unspecified)", "pIC50", "=", 6.00],
  ["COc1ccc(CNc2nc(N(CCO)CCO)nc3c2ncn3CC(C)C)cc1", "pIC50", "=", 5.70],
  ["CC(C)n1cnc2c(Nc3ccc(Br)cc3)nc(Nc3ccc(Br)cc3)nc21", "pIC50", "=", 5.30],
  ["COc1ccc(CNc2nc(N(CCO)CCO)nc3c2ncn3CC(O)CO)cc1 (stereo unspecified)", "pIC50", "<", 5.30],
  ["N#CCCCNc1nc(Cl)nc2nc[nH]c12", "pIC50", "<", 5.30],
  ["CCC(C)Cn1cnc2c(NCc3ccc(OC)cc3)nc(N(CCO)CCO)nc21 (stereo unspecified)", "pIC50", "=", 5.70],
  ["CC(C)n1cnc2c(NCc3ccc(-c4ccccc4)cc3)nc(NCc3ccco3)nc21", "pIC50", "<", 5.30],
  ["Cn1cnc2c(NCc3ccncc3)nc(Cl)nc21", "pIC50", "<", 5.30],
  ["COc1ccc(CNc2nc(N3CCC(O)C3)nc3c2ncn3C(C)C)cc1 (stereo unspecified)", "pIC50", "<", 5.30],
  ["CC(C)n1cnc2c(Nc3cnc4ccccc4c3)nc(N(CCO)CCO)nc21", "pIC50", "=", 5.70],
  ["CC(C)n1cnc2c(NCc3ccc(-c4cccs4)cc3)nc(N(CCO)CCO)nc21", "pIC50", "=", 6.22],
  ["COc1ccc(CNc2nc(Cl)nc3c2ncn3Cc2ccc(-c3ccccc3)cc2)cc1", "pIC50", "<", 5.30],
  ["COc1ccc(CNc2nc(N(CCO)CCO)nc3c2ncn3Cc2ccccc2-c2ccccc2)cc1", "pIC50", "<", 5.30],
  ["COc1ccc(CNc2nc(C3CC[C@@H](Cc4ccccc4N)N3)nc3c2ncn3C(C)C)cc1 (stereo partly specified)", "pIC50", "<", 5.30],
  ["COc1ccc(CNc2nc(N(C)CC(O)c3ccc(O)c(O)c3)nc3c2ncn3C(C)C)cc1 (stereo unspecified)", "pIC50", "=", 5.52],
  ["CCCCCCCC/C=C\\CCCCCCCCn1cnc2c(NCc3ccc(OC)cc3)nc(N(CCO)CCO)nc21", "pIC50", "=", 5.52],
  ["COc1ccc(CNc2nc(N(CCO)CCO)nc3c2ncn3Cc2cccc([N+](=O)[O-])c2)cc1", "pIC50", "=", 5.70],
  ["COCCN(CCOC)c1nc(NCc2ccc(-c3ccccc3)cc2)c2ncn(C(C)C)c2n1", "pIC50", "=", 5.30],
  ["COc1ccc(CNc2nc(NCC(O)CO)nc3c2ncn3C(C)C)cc1 (stereo unspecified)", "pIC50", "=", 5.70]
]}
